Target: peripheral type CCK receptors in rat pancreas (Rattus norvegicus)
Construct: from tissue; host or cells: pancreas membranes of male Sprague-Dawley rats
Sequence (P30551 whole entry): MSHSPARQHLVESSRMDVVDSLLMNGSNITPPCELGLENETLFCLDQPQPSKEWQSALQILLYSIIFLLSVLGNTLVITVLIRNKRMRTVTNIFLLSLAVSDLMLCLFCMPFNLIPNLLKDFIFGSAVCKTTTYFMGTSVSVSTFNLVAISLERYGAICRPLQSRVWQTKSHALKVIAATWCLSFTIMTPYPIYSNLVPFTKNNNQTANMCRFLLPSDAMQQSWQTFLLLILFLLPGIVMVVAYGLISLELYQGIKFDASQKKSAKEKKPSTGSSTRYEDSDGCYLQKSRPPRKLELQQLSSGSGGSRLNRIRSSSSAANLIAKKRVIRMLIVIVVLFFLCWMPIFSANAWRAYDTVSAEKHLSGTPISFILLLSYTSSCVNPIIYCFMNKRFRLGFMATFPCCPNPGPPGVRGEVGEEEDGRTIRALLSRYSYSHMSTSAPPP
Experiment: Binding to peripheral type CCK receptors in rat pancreas (3H-L364,718)
Settings: read-out: Pancreas % inhibition in binding assay
We begin with a simple list: items and their reported inhibition at 10 µM.
attribute.measured: inhibition at 10 µM (%)

{"smiles.input": "O=c1c2ccccc2nc(CCc2c[nH]c3ccccc23)n1-c1cccc(Cl)c1", "value.observed": 17}
{"smiles.input": "Cc1cccc(-n2c(CCc3c[nH]c4ccccc34)nc3ccccc3c2=O)c1", "value.observed": 0.6}
{"smiles.input": "O=c1c2ccccc2nc(CCc2c[nH]c3ccccc23)n1-c1ccccc1", "value.observed": 37}
{"smiles.input": "O=c1c2ccccc2nc(CCc2c[nH]c3ccccc23)n1-c1cccc(F)c1", "value.observed": 11}
{"smiles.input": "COc1cccc(-n2c(CCc3c[nH]c4ccccc34)nc3ccccc3c2=O)c1", "value.observed": 16}
{"smiles.input": "CCc1cccc(-n2c(CCc3c[nH]c4ccccc34)nc3ccccc3c2=O)c1", "value.observed": 2.6}

---

Target: peripheral type CCK receptors in rat pancreas (Rattus norvegicus)
Construct: from tissue; host or cells: pancreas membranes of male Sprague-Dawley rats
Assay: Binding to peripheral type CCK receptors in rat pancreas (3H-L364,718)
Conditions: rat pancreas; 10 μM; read-out: Pancreas % inhibition in binding assay
We begin with a simple list: items and their reported inhibition at 10 µM.
attribute.measured: inhibition at 10 µM (%)

{"compound": "O=c1c2ccccc2nc(CCCc2c[nH]c3ccccc23)n1-c1ccccc1 [Example 62]", "value.observed": 11}
{"compound": "CCc1cccc(-n2c(CCc3c[nH]c4ccc(Br)cc34)nc3ccccc3c2=O)c1 [Example 29]", "value.observed": -4.5}
{"compound": "CCc1cccc(-n2c(CCc3c[nH]c4ccc(Cl)cc34)nc3ccccc3c2=O)c1 [Example 30]", "value.observed": -9.1}
{"compound": "COc1ccc(-n2c(CCc3c[nH]c4ccc(Br)cc34)nc3ccccc3c2=O)cc1 [Example 52]", "value.observed": 0.3}
{"compound": "CCc1cccc(-n2c(CCc3c[nH]c4ccc(OC)cc34)nc3ccccc3c2=O)c1 [Example 31]", "value.observed": 11}
{"compound": "O=c1c2ccccc2nc(CCc2c[nH]c3ccccc23)n1-c1cccc(Br)c1 [Example 15]", "value.observed": -5.7}
{"compound": "CCOc1cccc(-n2c(CCc3c[nH]c4ccc(Br)cc34)nc3ccccc3c2=O)c1 [Example 23]", "value.observed": -14}

---

Biological target: Brain CCK receptor (Mus musculus)
Construct: from tissue; host or cells: forebrain membranes of male CF-1 mice
Sequence (P56481 whole entry): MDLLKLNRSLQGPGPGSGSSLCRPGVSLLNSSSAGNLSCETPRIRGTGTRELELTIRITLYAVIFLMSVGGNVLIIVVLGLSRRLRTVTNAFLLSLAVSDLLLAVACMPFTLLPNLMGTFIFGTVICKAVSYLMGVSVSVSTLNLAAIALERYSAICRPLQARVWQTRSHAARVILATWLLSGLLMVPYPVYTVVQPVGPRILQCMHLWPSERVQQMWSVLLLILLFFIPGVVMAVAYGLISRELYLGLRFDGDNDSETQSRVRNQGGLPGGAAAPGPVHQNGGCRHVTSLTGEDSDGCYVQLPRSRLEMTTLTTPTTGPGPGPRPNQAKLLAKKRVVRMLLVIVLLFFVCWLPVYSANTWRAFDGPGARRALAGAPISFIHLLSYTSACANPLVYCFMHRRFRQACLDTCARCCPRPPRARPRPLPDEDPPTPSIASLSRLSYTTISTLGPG
Assay: Brain CCK receptor binding (mouse brain membranes, 125I-CCK-8 sulfate)
Details: mouse brain membranes; Mean ± SEM, n = 3; values without SEM n = 1; read-out: Brain IC50
Experimental: Brain CCK receptor binding was performed using mouse brain membranes according to the method of Chang and Lotti (Proc. Natl. Acad. Sci. 83: 4923-4926, 1986). Male CF-1 mice, 23-25 g were sacrificed by cervical dislocation, the forebrain removed and placed in ice cold 50 mM Tris buffer, pH 7.4. […] The filters were washed twice with 3 ml of 50 mM Tris buffer, pH 7.4, containing 0.01% BSA and then counted for radioactivity in plastic tubes with a Micromedic 10/600 automatic gamma counter. […]

{"molecule": "O=c1c2ccccc2nc(CCc2c[nH]c3ccccc23)n1-c1ccccc1", "target.desc": "Brain CCK receptor (Mus musculus)", "IC50 [nM]": 670}
{"molecule": "COc1cccc(-n2c(CCc3c[nH]c4ccc(C)cc34)nc3ccccc3c2=O)c1", "target.desc": "Brain CCK receptor (Mus musculus)", "IC50 [nM]": 55}
{"molecule": "CCc1cccc(-n2c(CC(C)c3c[nH]c4ccc(Br)cc34)nc3ccccc3c2=O)c1 (centres unmarked)", "target.desc": "Brain CCK receptor (Mus musculus)", "IC50 [nM]": 100}
{"molecule": "COc1ccc(-n2c(CCc3c[nH]c4ccc(Br)cc34)nc3ccccc3c2=O)cc1C", "target.desc": "Brain CCK receptor (Mus musculus)", "IC50 [nM]": 29}
{"molecule": "Cc1cccc(-n2c(CCc3c[nH]c4ccccc34)nc3ccccc3c2=O)c1", "target.desc": "Brain CCK receptor (Mus musculus)", "IC50 [nM]": 150}
